Where do the numbers come from? From paper PMC7154053.

Assay Target: Burkholderia cenocepacia purified FtsZ protein (Burkholderia cenocepacia)
Experiment Summary: biochemical
Type: biochemical
Run Parameters: 100 µM; Yes/No; Supplementary Table 1
Attribute Measured: Inhibits B. cenocepacia FtsZ GTPase at 100µM?

In the examples that follow, each entry is paired with its recorded Inhibits B. cenocepacia FtsZ GTPase at 100µM?.
COc1cc(SC#N)c2nsnc2c1[N+](=O)[O-] ... Yes
CC(C)Oc1cc(SC#N)c2nsnc2c1[N+](=O)[O-] ... Yes
COC(=O)C(C)Sc1ccc2nsnc2c1[N+](=O)[O-] (centres unmarked) ... Yes
O=[N+]([O-])c1c(N=C=S)ccc2nsnc12 ... Yes

Kindly review the next compound as well.
Ask | What does the record list as Inhibits B. cenocepacia FtsZ GTPase at 100µM? for "CCCCCSc1ccc2nsnc2c1[N+](=O)[O-]" ?
Reply | No

---

Can you tell me melting point for the items I'm about to list?

Ask | What does the record list as melting point for O=C1CSc2ccc3nsnc3c2N1 [compound 11626109] ?
Reply | 211 to 213 °C

Ask | // query: COC(=O)C(C)Sc1ccc2nsnc2c1[N+](=O)[O-] (stereo not drawn) [compound 11826363]
Reply | 161 to 163 °C

Ask | // query: COC(=O)CSc1c(C)cc2nsnc2c1[N+](=O)[O-] [compound 11926141]
Reply | 172 to 174 °C

---

Assay Target: Burkholderia cenocepacia purified FtsZ protein (Burkholderia cenocepacia, UniProt B4E5Y7)
Sequence (B4E5Y7 entry or part of it): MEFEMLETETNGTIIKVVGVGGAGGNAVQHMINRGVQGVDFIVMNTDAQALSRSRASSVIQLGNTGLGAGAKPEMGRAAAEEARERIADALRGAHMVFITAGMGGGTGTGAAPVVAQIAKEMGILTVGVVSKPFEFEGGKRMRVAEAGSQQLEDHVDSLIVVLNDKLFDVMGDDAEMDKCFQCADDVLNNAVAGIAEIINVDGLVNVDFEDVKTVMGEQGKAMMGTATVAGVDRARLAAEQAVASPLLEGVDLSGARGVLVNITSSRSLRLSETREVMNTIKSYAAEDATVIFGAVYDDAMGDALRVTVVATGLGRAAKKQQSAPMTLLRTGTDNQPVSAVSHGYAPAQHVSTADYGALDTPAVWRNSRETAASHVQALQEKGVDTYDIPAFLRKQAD
Experiment Summary: biochemical
Format: biochemical
Run Parameters: 100 µM; Yes/No; Supplementary Table 1
Attribute Measured: Inhibits B. cenocepacia FtsZ GTPase at 100µM?

COC(=O)CS(=O)(=O)c1ccc2nsnc2c1[N+](=O)[O-] ... Yes
CCOC(=O)CCSc1ccc2nsnc2c1[N+](=O)[O-] ... No
CCOC(=O)C(C)Sc1ccc2nsnc2c1[N+](=O)[O-] (centres unmarked) ... No
CN(C)C(=S)Sc1ccc2nsnc2c1[N+](=O)[O-] ... Yes

Kindly review the next compound as well.
Ask | What does the record list as Inhibits B. cenocepacia FtsZ GTPase at 100µM? for "CCOc1cc(SC#N)c2nsnc2c1[N+](=O)[O-]" ?
Reply | Yes

---

Tested on: E. coli ATCC 25922
Experiment Summary: MIC, 2-fold microdilution, resazurin method
Assay type: cell-based
Run Parameters: Escherichia coli, ATCC25922; Supplementary Table 1; read-out: MIC (µg/ml) E. coli 25922
Attribute Measured: MIC

Ask | What does the record list as MIC for COC(=O)C[S+]([O-])c1ccc2nsnc2c1[N+](=O)[O-] (stereo not drawn) ?
Reply | 8 µg/mL

Ask | // query: "O=C1CSc2ccc3nsnc3c2N1"
Reply | > 512 µg/mL

Ask | // query: "N#CSc1cc(-c2ccc([N+](=O)[O-])cc2)c2nsnc2c1[N+](=O)[O-]"
Reply | > 512 µg/mL

Ask | // query: "CCCCCSc1ccc2nsnc2c1[N+](=O)[O-]"
Reply | > 512 µg/mL

Ask | // query: "CCOC(=O)COc1ccc2nsnc2c1[N+](=O)[O-]"
Reply | > 512 µg/mL

Ask | // query: CCOC(=O)C(C)Sc1ccc2nsnc2c1[N+](=O)[O-] (stereo not drawn)
Reply | 32 µg/mL

Ask | // query: "CN(C)C(=S)Sc1ccc2nsnc2c1[N+](=O)[O-]"
Reply | 512 µg/mL

Ask | // query: "COc1cc(SC#N)c2nsnc2c1[N+](=O)[O-]"
Reply | > 512 µg/mL

Ask | // query: "CC(C)Oc1cc(SC#N)c2nsnc2c1[N+](=O)[O-]"
Reply | > 512 µg/mL
